system: NCI-H322M multicellular tumor spheroids, viability (% test/control); assay: Anticancer human tumor NCI-H322M cell line growth inhibition; details: second compound 0.003 µM; first compound 3.16 µM; active compounds read low;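 also: spheroids exposed to compound for seven days before readout; 100% = DMSO vehicle control wells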
I'd appreciate it if you could supply viability, T/C values for the items below.

stdin: Which viability, T/C is reported for this compound? CC1COCCN1c1cc(-c2ccnn2C)c2ccnc(-c3ccn[nH]3)c2n1 (stereo not given) + COc1cc2c(cc1O)CCNC21CSC2c3c(OC(C)=O)c(C)c4c(c3C(COC1=O)N1C(O)C3Cc5cc(C)c(OC)c(O)c5C(C21)N3C)OCO4
stdout: 2.23%

stdin: Next entry: COc1cc(C)[nH]c(=O)c1CN1CCc2c(Cl)cc(C(OC)C3COC3)c(Cl)c2C1=O (stereo not given) + CC[C@@]1(O)C(=O)OCc2c1cc1n(c2=O)Cc2cc3c(CN(C)C)c(O)ccc3nc2-1
stdout: 84.3%

stdin: Next entry: Cc1cc(C)c(CNC(=O)c2cc(-c3ccc(CN4CCOCC4)cc3)cc3c2cnn3C2CCCC2)c(=O)[nH]1 + CC[C@@]1(O)C(=O)OCc2c1cc1n(c2=O)Cc2cc3c(CN(C)C)c(O)ccc3nc2-1
stdout: 81.2%

stdin: Next entry: COc1cc(C)[nH]c(=O)c1CN1CCc2c(Cl)cc(C(OC)C3COC3)c(Cl)c2C1=O (stereo not given) + COc1cc2c(cc1O)CCNC21CSC2c3c(OC(C)=O)c(C)c4c(c3C(COC1=O)N1C(O)C3Cc5cc(C)c(OC)c(O)c5C(C21)N3C)OCO4
stdout: 4.79%

stdin: Next entry: [2H]c1nc(C)nc([2H])c1-c1cc(NC[C@@H](C)c2cccc3c(C(=O)NC)ccnc23)ncn1 + CC[C@@]1(O)C(=O)OCc2c1cc1n(c2=O)Cc2cc3c(CN(C)C)c(O)ccc3nc2-1
stdout: 112%

----------
test system: NCI-H322M multicellular tumor spheroids, viability (% test/control); assay: Anticancer human tumor NCI-H322M cell line growth inhibition; details: second compound 100 µM; first compound 0.949 µM; active compounds read low;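 also: spheroids exposed to compound for seven days before readout; 100% = DMSO vehicle control wells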
I'd appreciate it if you could supply viability, T/C values for the items below.
Give the value, in units of %, as a plain number.

stdin: Which viability, T/C is reported for this compound? O=C(c1cc(Cc2n[nH]c(=O)c3ccccc23)ccc1F)N1CCN(C(=O)C2CC2)CC1 + Cn1nnc2c(C(N)=O)ncn2c1=O
stdout: 96.4

stdin: Next entry: Cc1sc2c(c1C)C(c1ccc(Cl)cc1)=NC(CC(=O)Nc1ccc(O)cc1)c1nnc(C)n1-2 (centres undefined) + Cn1nnc2c(C(N)=O)ncn2c1=O
stdout: 92.7

stdin: Next entry: Cn1ncnc1[C@H]1c2n[nH]c(=O)c3cc(F)cc(c23)N[C@@H]1c1ccc(F)cc1 + Cn1nnc2c(C(N)=O)ncn2c1=O
stdout: 59.5

stdin: Next entry: CNCc1ccc(-c2cc(-c3nc(-c4ccc(S(=O)(=O)C(C)C)cc4)cnc3N)on2)cc1 + Cn1nnc2c(C(N)=O)ncn2c1=O
stdout: 70.1

----------
system: NCI-H322M multicellular tumor spheroids, viability (% test/control); assay: Anticancer human tumor NCI-H322M cell line growth inhibition; settings: second compound 100 µM; first compound 0.316 µM; active compounds read low;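 also: spheroids exposed to compound for seven days before readout; 100% = DMSO vehicle control wells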
endpoint-label: viability, T/C (%)
Give the value, in units of %, as a plain number.

stdin: Which viability, T/C is reported for this compound? CC(C)n1c(=O)n(C)c2cnc3cc(F)c(-c4ccc(OCCCN5CCCCC5)nc4)cc3c21 + Cn1nnc2c(C(N)=O)ncn2c1=O
stdout: 82.1

stdin: Next entry: CC1COCCN1c1cc(-c2ccnn2C)c2ccnc(-c3ccn[nH]3)c2n1 (stereo unspecified) + Cn1nnc2c(C(N)=O)ncn2c1=O
stdout: 31.7

stdin: Next entry: COc1cc(C)[nH]c(=O)c1CN1CCc2c(Cl)cc(C(OC)C3COC3)c(Cl)c2C1=O (stereo unspecified) + Cn1nnc2c(C(N)=O)ncn2c1=O
stdout: 114

stdin: Next entry: Cc1cc(C)c(CNC(=O)c2cc(-c3ccc(CN4CCOCC4)cc3)cc3c2cnn3C2CCCC2)c(=O)[nH]1 + Cn1nnc2c(C(N)=O)ncn2c1=O
stdout: 113

stdin: Next entry: [2H]c1nc(C)nc([2H])c1-c1cc(NC[C@@H](C)c2cccc3c(C(=O)NC)ccnc23)ncn1 + Cn1nnc2c(C(N)=O)ncn2c1=O
stdout: 100

stdin: Next entry: COc1ccc([C@@H](O)c2cc(-c3ncnc4cc(N5CCOCC5)ccc34)c(F)cc2Cl)nn1 + Cn1nnc2c(C(N)=O)ncn2c1=O
stdout: 82.7
